Tested on: ACVR2A;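 also: KINOMEscan kinase panel screen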
Details: concentration: 1 μM, replicates: in singlicate; n = 1
In this section, each of the compounds is paired with its reported %Inh.
Measured Property: %Inh (%)

Compound: c1ccc(Oc2ccc(Nc3ccnc4cc(-c5ccc(CN6CCCCC6)o5)ccc34)cc2)nc1 [GW567143]
Measured Property: %Inh
Unit Annotation: %
Recorded Measurement: 32

Compound: Cn1cc(-c2ccc3c(c2)CCN3C(=O)Cc2cc(F)cc(C(F)(F)F)c2)c2c(N)ncnc21 [GSK2635225]
Measured Property: %Inh
Unit Annotation: %
Recorded Measurement: 0

Compound: Cl.N#CCc1ccc(Nc2nccc(Nc3ccc(Oc4ccccc4)cc3)n2)cc1 [GW639905]
Measured Property: %Inh
Unit Annotation: %
Recorded Measurement: 100

Compound: Cc1nn2c(=O)cc(N3CCO[C@H](C)C3)nc2n1Cc1cccc(Cl)c1Cl [GSK2373693]
Measured Property: %Inh
Unit Annotation: %
Recorded Measurement: 14

Compound: O=C(Nc1n[nH]c2nc(-c3cccc(O)c3)ccc12)C1CC1 [SB-711805]
Measured Property: %Inh
Unit Annotation: %
Recorded Measurement: 43

Compound: Cc1ccc(NC(=O)c2ccc(Cl)c(Cl)c2)cc1-c1ccc(C(=O)Nc2ccncc2)cc1 [GSK1398460]
Measured Property: %Inh
Unit Annotation: %
Recorded Measurement: 0

Compound: CN(c1ccc(NC(=O)N2CCN(CCCN3CCOCC3)CC2)cc1)c1ccnc(Nc2ccc(CS(C)(=O)=O)cc2)n1.Cl [GW830899]
Measured Property: %Inh
Unit Annotation: %
Recorded Measurement: 23

Compound: CN(c1ccc(F)c(NC(=O)c2cccc(OC(C)(C)C#N)c2Cl)c1)c1ccc2nc(NC(=O)C3CC3)sc2n1
Measured Property: %Inh
Unit Annotation: %
Recorded Measurement: 0

Compound: Cc1ccc(NC(=O)c2cccc(N3CCCCC3)c2)cc1-c1ccc(C(=O)NCC2CC2)cc1 [GSK1917008]
Measured Property: %Inh
Unit Annotation: %
Recorded Measurement: 6

Compound: CC(C)NCC(Cc1ccccc1)NC(=O)c1cc(Br)c(-c2ccnc3[nH]ccc23)s1.Cl.Cl (centres unmarked) [GSK1383281]
Measured Property: %Inh
Unit Annotation: %
Recorded Measurement: 0

Compound: Cc1ccc(C)c(NC(=O)Nc2ccc(C)c(-c3ccc(C(=O)Nc4ccncc4)cc3)c2)c1 [GSK1398473]
Measured Property: %Inh
Unit Annotation: %
Recorded Measurement: 0

Compound: COC(=O)Nc1nc2ccc(Oc3ccc(CC(=O)Nc4cc(C(F)(F)F)ccc4F)cc3)cc2[nH]1 [GW680903]
Measured Property: %Inh
Unit Annotation: %
Recorded Measurement: 0

Compound: COc1ccc(C)c(Nc2ccnc(Nc3ccc(-c4cnc[nH]4)cc3)n2)c1.Cl [GW784041]
Measured Property: %Inh
Unit Annotation: %
Recorded Measurement: 93.5

Compound: Cc1cc(-c2ccnc(Nc3cccc(C#N)c3)n2)cc(C)c1O [GSK1440913]
Measured Property: %Inh
Unit Annotation: %
Recorded Measurement: 8

Compound: Cc1ccc(Nc2ccnc(Nc3ccc(C)c(F)c3)n2)cc1O.Cl [GW582868]
Measured Property: %Inh
Unit Annotation: %
Recorded Measurement: 53

Compound: Nc1ncnc2scc(-c3ccc(NC(=O)Cc4cc(F)ccc4F)cc3)c12.O=C(O)C(F)(F)F [SB-731254-M]
Measured Property: %Inh
Unit Annotation: %
Recorded Measurement: 24

Compound: O=C(Nc1n[nH]c2nc(-c3ccccc3)ccc12)C1CC1 [SB-708999]
Measured Property: %Inh
Unit Annotation: %
Recorded Measurement: 9

Compound: COc1ccc(C2=C(Nc3cccc(O)c3)C(=O)NC2=O)cc1 [SB-390766]
Measured Property: %Inh
Unit Annotation: %
Recorded Measurement: 0

Compound: CN(C)c1ncnc2nc[nH]c12 [SKF-31736]
Measured Property: %Inh
Unit Annotation: %
Recorded Measurement: 0

Compound: CN(c1ccc(NC(=O)Nc2cccc(Cl)c2)cc1)c1ccnc(N)n1.Cl [GW830707]
Measured Property: %Inh
Unit Annotation: %
Recorded Measurement: 0

Compound: N#Cc1cnc2cc(-c3cnc(CNCCN4CCOCC4)s3)ccc2c1Nc1ccc(Oc2ccccc2)cc1 [GW664114]
Measured Property: %Inh
Unit Annotation: %
Recorded Measurement: 0

Compound: CCNc1nccc(-c2c(-c3ccc(F)cc3)ncn2C2CCN(C)CC2)n1
Measured Property: %Inh
Unit Annotation: %
Recorded Measurement: 0

Compound: N#CC1(c2cccc(C(=O)Nc3cccc(Oc4ccc5nc(NC(=O)C6CC6)sc5n4)c3)c2)CC1
Measured Property: %Inh
Unit Annotation: %
Recorded Measurement: 3

Compound: CCn1cnc2c(NCc3ccccc3)ncnc21 [SKF-96418]
Measured Property: %Inh
Unit Annotation: %
Recorded Measurement: 0

Compound: COC(=O)Nc1nc2cc(Oc3ccc(NC(=O)Nc4cccc(SC)c4)cc3)ccc2[nH]1.Cl [GW697999]
Measured Property: %Inh
Unit Annotation: %
Recorded Measurement: 0

Compound: COc1cccc(C2=C(Nc3cccc(O)c3)C(=O)NC2=O)c1 [SB-390771]
Measured Property: %Inh
Unit Annotation: %
Recorded Measurement: 0

Compound: COc1cc(Nc2nccc(N3CCC(NC(=O)Nc4ccc5c(c4)OCO5)C3)n2)cc(OC)c1OC (centres unmarked) [GSK1379766]
Measured Property: %Inh
Unit Annotation: %
Recorded Measurement: 0

Compound: Cc1ccccc1CC(=O)N1CCc2cc(-c3cn(C)c4ncnc(N)c34)ccc21 [GSK2603346]
Measured Property: %Inh
Unit Annotation: %
Recorded Measurement: 0

Compound: Cn1cc(-c2cnc(N)c3c(-c4ccc5c(c4)CCN5C(=O)Cc4ccccc4)csc23)cn1 [GSK2593074]
Measured Property: %Inh
Unit Annotation: %
Recorded Measurement: 0

Compound: O=C(Nc1c(F)cccc1F)c1cc(C(=O)c2ccccc2F)c[nH]1 [GSK1326180]
Measured Property: %Inh
Unit Annotation: %
Recorded Measurement: 0

Compound: CN1CCN(Cc2ccc(NC(=O)Nc3ccc(N(C)c4ccnc(Nc5ccc(CS(C)(=O)=O)cc5)n4)cc3)cc2)CC1.Cl [GW827654]
Measured Property: %Inh
Unit Annotation: %
Recorded Measurement: 0

Compound: Fc1cc(Cl)ccc1Nc1ccnc2cc(-c3ccc(CN4CCSCC4)o3)ccc12 [GW560106]
Measured Property: %Inh
Unit Annotation: %
Recorded Measurement: 14

Compound: Nc1cccc(-c2ccc3c(N)n[nH]c3c2)c1 [GSK2193613]
Measured Property: %Inh
Unit Annotation: %
Recorded Measurement: 0

Compound: Fc1cc(Cl)ccc1Nc1ccnc2cc(-c3ccc(CN4CCOCC4)o3)ccc12 [GW560109]
Measured Property: %Inh
Unit Annotation: %
Recorded Measurement: 22

Compound: Cc1ccc(-c2ccc3occ(-c4ccc(S(C)=O)cc4)c3c2)nn1 (centres unmarked)
Measured Property: %Inh
Unit Annotation: %
Recorded Measurement: 0
